Data credit: patent US10287305B2

# target.system: human orexin type 2 receptor (hOX2R) (Homo sapiens (Human), UniProt O43614)
# Sequence (O43614 whole entry): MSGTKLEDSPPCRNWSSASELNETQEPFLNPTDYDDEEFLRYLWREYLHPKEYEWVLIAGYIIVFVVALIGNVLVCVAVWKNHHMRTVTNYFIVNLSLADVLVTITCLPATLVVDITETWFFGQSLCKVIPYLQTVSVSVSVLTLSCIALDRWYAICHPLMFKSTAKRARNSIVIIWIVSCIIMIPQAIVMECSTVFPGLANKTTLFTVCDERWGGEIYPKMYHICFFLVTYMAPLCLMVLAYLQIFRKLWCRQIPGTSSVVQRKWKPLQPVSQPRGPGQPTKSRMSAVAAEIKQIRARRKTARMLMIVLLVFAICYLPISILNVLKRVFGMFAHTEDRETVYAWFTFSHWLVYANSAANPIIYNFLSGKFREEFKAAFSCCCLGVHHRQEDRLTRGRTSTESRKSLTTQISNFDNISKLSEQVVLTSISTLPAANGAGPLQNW
# protocol.text: Measurement of orexin type 2 receptor agonist activity (Experimental Example 2-1, FLIPR TETRA, intracellular Ca2+)
# Format: cell-based
# particulars: CHO dhfr- cells expressing hOX2R, FLIPR TETRA, Fluo-4AM; read-out: Emax (%)
Consider the following compounds; for each one, report its Emax.
Answers are plain numbers, in %.

[
  {
    "compound": "CS(=O)(=O)N[C@H]1CCCN(C(=O)[C@H]2C[C@@H]2F)[C@H]1COC1CCN(c2ccccc2F)CC1 [Example 222]",
    "target.system": "human orexin type 2 receptor (hOX2R) (Homo sapiens (Human), UniProt O43614)",
    "Emax (%)": 102
  }
]

For each of the compounds below, state Emax.
1. CCNC(=O)N1CCC[C@H](NS(C)(=O)=O)[C@@H]1CO[C@H]1CC[C@@H](c2cccc(C#N)c2)CC1 (relative stereo) [Example 254]
2. CS(=O)(=O)CC(=O)N1CCC[C@H](NS(C)(=O)=O)[C@@H]1CO[C@H]1CC[C@@H](c2ccccc2)CC1 [Example 181]
3. CS(=O)(=O)N[C@H]1CCCN(C(=O)Cn2cccn2)[C@H]1CO[C@H]1CC[C@@H](c2ccccc2)CC1 (relative stereo) [Example 138]
4. CCNC(=O)N1CCC[C@H](NS(C)(=O)=O)[C@@H]1CO[C@H]1CC[C@@H](c2ccc(F)c(F)c2)CC1 (relative stereo) [Example 144]

1. 105
2. 89
3. 94
4. 104

What value of measured Emax is listed for CC(C)OC(=O)N1CCC[C@H](NS(C)(=O)=O)[C@@H]1CO[C@@H]1CCN(c2ncccn2)C[C@H]1F (relative stereo) [Example 341] ? 103

* * *

# target.system: human orexin type 2 receptor (hOX2R) (Homo sapiens (Human))
# protocol.text: Measurement of orexin type 2 receptor agonist activity (Experimental Example 2-1, FLIPR TETRA, intracellular Ca2+)
# Assay type: cell-based
# particulars: CHO dhfr- cells expressing hOX2R; agonist activity, 10 nM human orexin B = 100%
Give measured EC50 for each item. Keep answers brief.
One number for each entry, in µM.

[
  {
    "compound": "CC(=O)N1CCC[C@H](NS(C)(=O)=O)[C@@H]1CO[C@H]1CC[C@@H](C(F)(F)F)CC1 (relative stereo) [Example 106]",
    "target.system": "human orexin type 2 receptor (hOX2R) (Homo sapiens (Human))",
    "number": 4.8
  },
  {
    "compound": "CC(=O)N1CCC[C@H](NS(C)(=O)=O)[C@@H]1CO[C@H]1CC[C@@H](c2ccccc2C(F)(F)F)CC1 [Example 24]",
    "target.system": "human orexin type 2 receptor (hOX2R) (Homo sapiens (Human))",
    "number": 0.021
  },
  {
    "compound": "CC(C)[C@H]1CC[C@@H](OC[C@H]2[C@@H](NS(C)(=O)=O)CCCN2C(=O)N(C)C)CC1 (relative stereo) [Example 40]",
    "target.system": "human orexin type 2 receptor (hOX2R) (Homo sapiens (Human))",
    "number": 0.72
  },
  {
    "compound": "CC(C)[C@H]1CC[C@@H](OC[C@H]2[C@@H](NS(C)(=O)=O)CCCN2S(=O)(=O)C2CC2)CC1 (relative stereo) [Example 62]",
    "target.system": "human orexin type 2 receptor (hOX2R) (Homo sapiens (Human))",
    "number": 2.3
  }
]

For each of the compounds below, state EC50.
1. COCC(=O)N1CCC[C@H](NS(C)(=O)=O)[C@@H]1CO[C@H]1CC[C@@H](C(C)C)CC1 (relative stereo) [Example 45]
2. CC(=O)N1CCC[C@H](NS(C)(=O)=O)[C@@H]1CO[C@H]1CC[C@@H](c2c(F)ccc(F)c2F)CC1 [Example 22]
3. CC(=O)N1CCC[C@H](NS(C)(=O)=O)[C@@H]1CO[C@H]1CC[C@@H](C2CCCCC2)CC1 [Example 71]

1: 0.33; 2: 0.0053; 3: 4.3
